Reported inhibition of aggregation is given for each of the following compounds.
assay: reduction of polyQ htt aggregates in cells – imaging, exon1htt(103Q)mCFP cells, high-content imaging, primary screen (AID 483); conditions: exon1htt(103Q)mCFP cell line, aggregate imaging, at 2 µM; stronger effect = higher value;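 note: compound exposure lasted 3 days before fixation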
A number alone suffices; assume %.

Solved entries (count: 2):
Which inhibition of aggregation is reported for this compound? CC1CN(C2CCCCC2)c2nc3c(c(=O)[nH]c(=O)n3C)n2C1 (stereo unspecified)
-5.5

For the compound CCCCn1c(CN(C)Cc2ccccc2)nc2c1c(=O)n(C)c(=O)n2C , what inhibition of aggregation is on record?
13.2

Next:
Item under review: O=C(c1cccnc1)N1CCN(C(=O)c2ccccc2F)CC1 . Reported inhibition of aggregation?
-7.4

* * *

assay: inhibitors of TNFa-induced NFkB p65 translocation, primary screen, imaging, HUVEC, MLSMR starter and 10KST1 sets (AID 438); conditions: HUVEC TNFa-induced p65 nuclear translocation; measured here: nuclei count (cytotoxicity indicator), at 2.08 µM;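 note: compound added about 3h40 before a 20 min TNFalpha stimulation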
Grouping key: cell count. Bins: lo (below 400), med (400 to below 700), hi (700 or more)

Past entries and their recorded results:
Note: place this compound into its band. Item: CC(=O)N1CCN(S(=O)(=O)c2ccc(S(=O)(=O)NCC(C)C)cc2)CC1
med

Band of Cc1cc(OCC(=O)N2CCOCC2)cc2oc(=O)c3ccccc3c12 ?
lo

# classify by cell count band: Cc1cc(NC(=O)CS(=O)(=O)c2cn(Cc3ccccc3Cl)c3ccccc23)no1
hi

Textbook exercise: identify the category of the compound given here, CC(=O)c1ccc(OCC(O)CN2CCN(Cc3ccc4c(c3)OCO4)CC2)cc1 (centres undefined) , according to its measured value.
med

Could you place CC1Oc2ccccc2N(CC(=O)NCc2cccs2)C1=O (centres undefined) in its proper category? Many thanks.
hi

Now consider a different compound.
Lab note: sort CCN(C(=O)c1cccs1)c1nnc(-c2ccncc2)s1 into the matching cell count band.
hi

* * *

assay: endothelial E-selectin expression blockers – imaging, HUVEC, immunofluorescence, MLSMR starter and 10KST1 sets, primary screen (AID 487); details: HUVEC TNFalpha-induced E-selectin immunofluorescence imaging, at 2 µM; measured here: cell number, toxicity;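 for nuclei count: 100% = median nuclei count of all wells on the same plate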
assay.readout: nuclei count (%)
All answers are understood in %, so give the number only.

Example cases with answers are listed next.
Look at this molecule and give its reported nuclei count. Cc1sc2nc(SCC(=O)N3CCN(CCO)CC3)n(-c3ccccc3)c(=O)c2c1C
121

Could you tell me which nuclei count is on file for CSCC[C@@H](Nc1nc(-c2ccccc2)nc2c1oc1ccccc12)C(=O)O ?
123

New cases:
Could you share which nuclei count value was measured for O=C(Nc1ccc2c(c1)OCO2)N1CCN(c2ncccn2)CC1 ?
118

Which nuclei count value is on record for NC(=O)CSCc1ccc(Br)cc1 ?
105

Endpoint output: nuclei count of CN1C(=S)SC(C)(NO)C1(C)C (stereo not drawn) . Value?
107

* * *

Property: inhibition; scope: individual molecules
test: endothelial E-selectin expression blockers – imaging, HUVEC, immunofluorescence, MLSMR starter and 10KST1 sets, primary screen (AID 487); details: HUVEC TNFalpha-induced E-selectin immunofluorescence imaging, at 2 µM; stronger effect = higher value;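 for inhibition: signal is fraction of cell area covered by stained E-selectin grains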
Write down the numeric answer in % and omit the unit.

// query inhibition value for entry COCc1nnc(SCC(=O)NC(C)c2ccccc2)n1-c1ccccc1 (stereo not given)
-18.5

Reported inhibition, molecule COCCn1c(CN(Cc2ccccc2)Cc2ccccc2)nc2c1c(=O)n(C)c(=O)n2C : ____
-48.5

Value lookup for inhibition; key = CCn1c(SCC(=O)N2CCN(c3ccc(Cl)cc3)CC2)nc2ccccc2c1=O
-184

Record request: inhibition value, item O=C(NCCCN1CCCC1=O)C1CCN(S(=O)(=O)N2CCOCC2)CC1
27.7

Others:
Fill in the blank: the reported inhibition of Cc1nc2ccccc2c(=O)n1NC(=O)Nc1ccccc1 is ____.
-41.3

Every entry's value here was drawn from PubChem BioAssay.
